Origin of values: patent US8993586B2

- targetSystem: recombinant human ACC2 (rhACC2) (Homo sapiens (Human))
- Sequence (O00763 whole entry V2141I): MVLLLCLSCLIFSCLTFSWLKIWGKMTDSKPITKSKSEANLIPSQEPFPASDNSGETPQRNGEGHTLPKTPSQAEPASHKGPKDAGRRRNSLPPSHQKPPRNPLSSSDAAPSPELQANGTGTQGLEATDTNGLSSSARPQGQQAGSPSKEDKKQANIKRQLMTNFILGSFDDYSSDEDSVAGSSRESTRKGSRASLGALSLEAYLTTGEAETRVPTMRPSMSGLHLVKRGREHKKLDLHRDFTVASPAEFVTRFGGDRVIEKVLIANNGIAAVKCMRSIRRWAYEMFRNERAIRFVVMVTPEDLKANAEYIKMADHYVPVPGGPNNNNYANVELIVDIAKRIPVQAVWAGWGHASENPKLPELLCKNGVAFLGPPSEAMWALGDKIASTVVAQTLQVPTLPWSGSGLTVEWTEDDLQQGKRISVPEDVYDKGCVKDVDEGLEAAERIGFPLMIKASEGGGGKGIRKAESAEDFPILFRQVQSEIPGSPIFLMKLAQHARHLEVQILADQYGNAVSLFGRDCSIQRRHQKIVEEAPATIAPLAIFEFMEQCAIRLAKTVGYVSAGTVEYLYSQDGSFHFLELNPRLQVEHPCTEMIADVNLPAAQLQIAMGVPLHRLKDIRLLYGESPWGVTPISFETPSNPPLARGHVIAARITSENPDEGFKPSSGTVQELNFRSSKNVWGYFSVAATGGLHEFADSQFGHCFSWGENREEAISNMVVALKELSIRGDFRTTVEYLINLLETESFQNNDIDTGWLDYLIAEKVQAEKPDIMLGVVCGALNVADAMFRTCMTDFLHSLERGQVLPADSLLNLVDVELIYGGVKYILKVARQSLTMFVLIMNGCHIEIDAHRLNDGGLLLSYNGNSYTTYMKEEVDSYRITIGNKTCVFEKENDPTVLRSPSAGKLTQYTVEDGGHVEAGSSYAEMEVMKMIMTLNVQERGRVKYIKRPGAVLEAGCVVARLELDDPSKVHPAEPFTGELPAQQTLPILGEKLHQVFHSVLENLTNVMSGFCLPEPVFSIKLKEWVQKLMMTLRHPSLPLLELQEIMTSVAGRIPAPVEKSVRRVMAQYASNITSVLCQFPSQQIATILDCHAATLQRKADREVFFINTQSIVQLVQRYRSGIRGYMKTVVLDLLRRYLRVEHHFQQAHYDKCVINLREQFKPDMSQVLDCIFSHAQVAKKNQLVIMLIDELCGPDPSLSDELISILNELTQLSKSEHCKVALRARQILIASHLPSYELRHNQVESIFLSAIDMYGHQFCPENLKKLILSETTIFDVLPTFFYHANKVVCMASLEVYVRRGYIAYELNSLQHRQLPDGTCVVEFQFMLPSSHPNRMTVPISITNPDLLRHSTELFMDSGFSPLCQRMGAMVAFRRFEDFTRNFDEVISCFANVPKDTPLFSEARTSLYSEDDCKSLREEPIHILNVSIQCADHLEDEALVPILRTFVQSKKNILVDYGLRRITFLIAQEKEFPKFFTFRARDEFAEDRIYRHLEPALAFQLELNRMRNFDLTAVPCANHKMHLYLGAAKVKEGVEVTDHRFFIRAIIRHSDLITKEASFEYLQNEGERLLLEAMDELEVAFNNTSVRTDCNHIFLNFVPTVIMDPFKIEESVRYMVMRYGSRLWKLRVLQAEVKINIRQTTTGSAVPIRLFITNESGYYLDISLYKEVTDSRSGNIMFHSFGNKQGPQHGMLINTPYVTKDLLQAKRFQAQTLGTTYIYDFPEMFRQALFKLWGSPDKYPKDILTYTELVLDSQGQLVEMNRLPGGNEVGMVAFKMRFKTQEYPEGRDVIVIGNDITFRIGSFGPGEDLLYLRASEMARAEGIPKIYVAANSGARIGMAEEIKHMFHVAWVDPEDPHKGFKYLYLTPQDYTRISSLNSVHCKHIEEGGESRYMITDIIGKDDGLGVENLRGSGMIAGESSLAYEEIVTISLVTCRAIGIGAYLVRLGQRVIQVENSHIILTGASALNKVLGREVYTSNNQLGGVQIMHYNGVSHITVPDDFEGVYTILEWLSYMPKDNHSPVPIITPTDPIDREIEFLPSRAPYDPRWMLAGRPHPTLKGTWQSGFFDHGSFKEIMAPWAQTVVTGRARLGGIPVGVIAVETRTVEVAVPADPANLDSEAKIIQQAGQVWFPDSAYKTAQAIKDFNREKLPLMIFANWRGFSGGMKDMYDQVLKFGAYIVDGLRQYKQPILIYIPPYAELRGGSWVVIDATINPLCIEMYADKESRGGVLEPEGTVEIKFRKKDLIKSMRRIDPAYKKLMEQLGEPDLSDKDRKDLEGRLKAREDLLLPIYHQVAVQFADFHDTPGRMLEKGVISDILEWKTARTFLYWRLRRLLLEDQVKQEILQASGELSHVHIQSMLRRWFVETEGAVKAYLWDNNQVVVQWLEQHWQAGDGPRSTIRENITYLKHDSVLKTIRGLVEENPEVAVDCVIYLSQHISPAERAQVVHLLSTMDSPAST
- experimentalProtocol: recombinant hACC2 Transcreener ADP detection FP assay
- conditionContext: 50 uM ATP, 50 min at 25° C.
pIC50: −log10 of the molar value.
endpoint: pIC50

compound	numericReadout
COc1n[nH]c2ccc(C(=O)N3CCC4(CC3)Cc3cn(C(C)(C)C)nc3C(=O)N4)cc12 [Example 81]	8.28

[A] COc1cc(C(=O)N2CCC3(CC2)Cc2cnn(C(C)C)c2C(=O)N3)cc2[nH]ncc12 [Example 12]
[B] CC(C)(C)n1cc2c(n1)C(=O)NC1(CCN(C(=O)c3ccc4[nH]c(N)nc4c3)CC1)C2 [Example 77]
[C] CCNc1nccc2ccc(C(=O)N3CCC4(CC3)Cc3cn(C(C)(C)C)nc3C(=O)N4)cc12 [Example 121]
Please put the entries in order of rising pIC50. As an answer, provide the labels arranged in the order called for.
A, B, C

[A] CC(C)n1ncc2c1C(=O)NC1(CCN(C(=O)c3cc(Cl)c4[nH]ncc4c3)CC1)C2 [Example 11]
[B] CC(C)n1ncc2c1C(=O)NC1(CCN(C(=O)c3ccc4ncccc4c3)CC1)C2 [Example 21]
// pick min by pIC50: A , B Respond using the label that marks the chosen record.
B
(B: 6.47, A: 7.14)

[I] COc1ccc2ncc(C(=O)N3CCC4(CC3)Cc3cnn(C(C)C)c3C(=O)N4)cc2c1 [Example 26]
[II] Cc1nc2cc(C(=O)N3CCC4(CC3)Cc3cn(C(C)C)nc3C(=O)N4)ccc2[nH]1 [Example 40]
Hi, I'm comparing two records. Which one has the lower pIC50, I or II ? Let me know the label of the one you choose.
II

[P] CC(C)(C)n1cc2c(n1)C(=O)NC1(CCN(C(=O)c3ccc4ccc(NC5CCC5)nc4c3)CC1)C2 [Example 109]
[Q] Cc1cc(C(=O)N2CCC3(CC2)Cc2cn(C(C)(C)C)nc2C(=O)N3)cc2c(Cl)n[nH]c12 [Example 62]
[R] CC(C)n1ncc2c1C(=O)NC1(CCN(C(=O)c3ccc4ccncc4c3)CC1)C2 [Example 23]
[S] COc1ccc2ncc(C(=O)N3CCC4(CC3)Cc3cn(C(C)(C)C)nc3C(=O)N4)cc2c1 [Example 48]
[T] CCN(C)c1nccc2ccc(C(=O)N3CCC4(CC3)Cc3cn(C(C)(C)C)nc3C(=O)N4)cc12 [Example 117]
Arrange these 5 compounds in increasing order of pIC50. Write out the labels following the order that was asked for.
R, T, S, Q, P
(R: 6.28, T: 7.27, S: 8.04, Q: 8.68, P: 9.00)

###

- targetSystem: recombinant human ACC2 (rhACC2) (Homo sapiens (Human))
- experimentalProtocol: recombinant hACC2 Transcreener ADP detection FP assay
- conditionContext: 50 uM ATP, 50 min at 25° C.
pIC50: −log10 of the molar value.
endpoint: pIC50

CNc1n[nH]c2ccc(C(=O)N3CCC4(CC3)Cc3cnn(C(C)C)c3C(=O)N4)cc12 6.90

[P] Cc1cc(C(=O)N2CCC3(CC2)Cc2cnn(C(C)C)c2C(=O)N3)cc2c[nH]nc12
[Q] CCN(C)c1ccc2ccc(C(=O)N3CCC4(CC3)Cc3cn(C(C)(C)C)nc3C(=O)N4)cc2n1
[R] CCc1cc(C(=O)N2CCC3(CC2)Cc2cnn(C(C)C)c2C(=O)N3)cc2cn[nH]c12
List the 3 entries from lowest pIC50 to highest pIC50 value. Use the labels to give the ranking in the order requested.
R, P, Q
